Here the recorded half-life is given for each entry.
Test: Rat Pharmacokinetic (PK) Studies
Type: in vivo, Sprague-Dawley rats
Settings: male, Sprague-Dawley, plasma, read-out: half life
PROPERTY LABEL: half-life

{"MOLECULE": "C[C@]1(CO)Cn2ncc([S@](N)(=O)=NC(=O)Nc3c4c(c(F)c5c3CC5)CC4)c2O1 [Compound 6]", "TEST RESULT": "> 1.5 h"}
{"MOLECULE": "CNC1COc2c(S(N)(=O)=NC(=O)Nc3c4c(c(F)c5c3CC5)CC4)cnn2C1 (centres unmarked) [XO]", "TEST RESULT": "< 1 h"}

====

Target: hPXR nuclear receptor (Homo sapiens, UniProt O75469)
Construct: expressed in transfected cells
Sequence (O75469 whole entry): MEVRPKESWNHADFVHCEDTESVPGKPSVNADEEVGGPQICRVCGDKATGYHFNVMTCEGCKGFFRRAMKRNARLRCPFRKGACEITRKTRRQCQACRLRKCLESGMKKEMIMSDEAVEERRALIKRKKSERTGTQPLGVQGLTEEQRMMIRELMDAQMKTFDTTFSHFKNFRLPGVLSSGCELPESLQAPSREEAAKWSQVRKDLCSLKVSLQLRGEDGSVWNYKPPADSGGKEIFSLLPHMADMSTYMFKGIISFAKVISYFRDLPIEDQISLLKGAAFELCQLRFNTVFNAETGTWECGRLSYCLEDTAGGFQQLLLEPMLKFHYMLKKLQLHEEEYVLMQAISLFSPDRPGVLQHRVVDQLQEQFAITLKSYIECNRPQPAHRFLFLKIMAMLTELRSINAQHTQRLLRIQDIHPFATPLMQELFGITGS
Assay: PXR Activation Assay
Assay type: cell-based
Settings: relative to positive control (rifampicin)

{"COMPOUND": "CC1(C)Cn2ncc(S(N)(=O)=NC(=O)Nc3c4c(cc5c3CC5)CCC4)c2O1 (stereo not shown)", "% PXR activation @ 10 μM": "90%"}
{"COMPOUND": "NS(=O)(=NC(=O)Nc1c2c(cc3c1CC3)CC2)c1cnn2c1OCC2 (stereo not shown)", "% PXR activation @ 10 μM": "15%"}
{"COMPOUND": "NS(=O)(=NC(=O)Nc1c2c(cc3c1CCC3)CCC2)c1cnn2c1OC(CO)C2 (stereo not shown)", "% PXR activation @ 10 μM": "3.7%"}
{"COMPOUND": "CC1(C)Cn2ncc(S(N)(=O)=NC(=O)Nc3c4c(cc5c3CC5)CC4)c2O1 (stereo not shown)", "% PXR activation @ 10 μM": "81%"}
{"COMPOUND": "NS(=O)(=NC(=O)Nc1c2c(cc3c1CCC3)CCC2)c1cnn2c1OCC(O)C2 (stereo not shown)", "% PXR activation @ 10 μM": "2.4%"}
{"COMPOUND": "CC1(C)COc2c(S(N)(=O)=NC(=O)Nc3c4c(cc5c3CC5)CC4)cnn2C1 (stereo not shown)", "% PXR activation @ 10 μM": "63%"}
{"COMPOUND": "NS(=O)(=NC(=O)Nc1c2c(cc3c1CC3)CCC2)c1cnn2c1OCCC2 (stereo not shown)", "% PXR activation @ 10 μM": "26%"}

====

Assay: Rat Pharmacokinetic (PK) Studies
Format: in vivo, Sprague-Dawley rats
Details: male, Sprague-Dawley, plasma, read-out: Rat Half Life (converted)
PROPERTY LABEL: half-life (h)

{"COMPOUND": "CC1(C)Cn2ncc(S(N)(=O)=NC(=O)Nc3c4c(cc5c3CC5)CC4)c2O1 (centres unmarked)", "PROPERTY LABEL": "half-life", "UNITS OF MEASURE": "h", "COMPARISON SIGN": "=", "TEST RESULT": 1.9}
{"COMPOUND": "CC1(C)Cn2ncc(S(N)(=O)=NC(=O)Nc3c4c(cc5c3CCC5)CCC4)c2O1 (centres unmarked)", "PROPERTY LABEL": "half-life", "UNITS OF MEASURE": "h", "COMPARISON SIGN": "=", "TEST RESULT": 0.87}
{"COMPOUND": "COC1CN(C2COc3c(S(N)(=O)=NC(=O)Nc4c5c(cc6c4CC6)CC5)cnn3C2)C1 (centres unmarked)", "PROPERTY LABEL": "half-life", "UNITS OF MEASURE": "h", "COMPARISON SIGN": "=", "TEST RESULT": 1.9}
{"COMPOUND": "C[C@]1(CO)Cn2ncc([S@](N)(=O)=NC(=O)Nc3c4c(c(F)c5c3CC5)CC4)c2O1", "PROPERTY LABEL": "half-life", "UNITS OF MEASURE": "h", "COMPARISON SIGN": "=", "TEST RESULT": 1.8}
{"COMPOUND": "CNC1COc2c(S(N)(=O)=NC(=O)Nc3c4c(c(F)c5c3CC5)CC4)cnn2C1 (centres unmarked)", "PROPERTY LABEL": "half-life", "UNITS OF MEASURE": "h", "COMPARISON SIGN": "=", "TEST RESULT": 1.3}
{"COMPOUND": "CC1(CO)Cn2ncc(S(N)(=O)=NC(=O)Nc3c4c(cc5c3CCC5)CCC4)c2O1 (centres unmarked)", "PROPERTY LABEL": "half-life", "UNITS OF MEASURE": "h", "COMPARISON SIGN": "=", "TEST RESULT": 1.2}
{"COMPOUND": "C[C@]1(CO)Cn2ncc([S@](N)(=O)=NC(=O)Nc3c4c(cc5c3CC5)CC4)c2O1", "PROPERTY LABEL": "half-life", "UNITS OF MEASURE": "h", "COMPARISON SIGN": ">", "TEST RESULT": 2}
{"COMPOUND": "CC1(C)COc2c(S(N)(=O)=NC(=O)Nc3c4c(cc5c3CCC5)CCC4)cnn2C1 (centres unmarked)", "PROPERTY LABEL": "half-life", "UNITS OF MEASURE": "h", "COMPARISON SIGN": "=", "TEST RESULT": 2}

====

Biological target: hPXR nuclear receptor (Homo sapiens)
Construct: expressed in transfected cells
Test: PXR Activation Assay
Type: cell-based
Settings: relative to positive control (rifampicin)

{"COMPOUND": "CC1(CO)COc2c(S(N)(=O)=NC(=O)Nc3c4c(cc5c3CCC5)CCC4)cnn2C1 (single isomer, unassigned) [XJ]", "SYSTEM": "hPXR nuclear receptor (Homo sapiens)", "UNITS OF MEASURE": "%", "% PXR activation @ 10 μM": 2.4}
{"COMPOUND": "NS(=O)(=NC(=O)Nc1c2c(cc3c1CCC3)CCC2)c1cnn2c1OCCC2 (stereo not shown)", "SYSTEM": "hPXR nuclear receptor (Homo sapiens)", "UNITS OF MEASURE": "%", "% PXR activation @ 10 μM": 22}
{"COMPOUND": "CC1(CO)COc2c(S(N)(=O)=NC(=O)Nc3c4c(cc5c3CCC5)CCC4)cnn2C1 (single isomer, unassigned) [XK]", "SYSTEM": "hPXR nuclear receptor (Homo sapiens)", "UNITS OF MEASURE": "%", "% PXR activation @ 10 μM": 4}
{"COMPOUND": "CC1(C)COc2c(S(N)(=O)=NC(=O)Nc3c4c(cc5c3CCC5)CCC4)cnn2C1 (stereo not shown)", "SYSTEM": "hPXR nuclear receptor (Homo sapiens)", "UNITS OF MEASURE": "%", "% PXR activation @ 10 μM": 61}
